system: A549; assay: Cytotoxicity against human A549 cells after 6 days by MTT assay; type: functional; details: A549, 144 h, read-out: ED50 (the source's name)
experimental.readout: EC50 (µg/mL)
Give the value, in units of µg/mL, as a plain number.

These recorded examples may help you get a feel for the data.
smiles.input | endpoint.value
C=C(CC[C@@H](C)[C@H]1CC[C@H]2[C@@H]3[C@@H](O)C=C4C[C@@H](O)CC[C@]4(CO)[C@H]3CC[C@]12C)C(C)C | 0.69
C=C(CC[C@@H](C)[C@H]1CC[C@H]2[C@@H]3[C@@H](OC(C)=O)C=C4C[C@@H](O)CC[C@]4(CO)[C@H]3CC[C@]12C)C(C)C | 0.81

Okay, next one:
The value of EC50 measured for the molecule `C=C(CC[C@@H](C)[C@H]1C[C@@H](O)[C@H]2[C@@H]3CC=C4C[C@@H](O)CC[C@]4(CO)[C@H]3CC[C@@]21C)C(C)C` turned out to be 0.41

====

system: A549; assay: Cytotoxicity against human A549 cells after 6 days by MTT assay; assay type: functional; settings: A549, 144 h, read-out: ED50 (the source's name)
# EC50 per record follows
Write it as a number; the unit µg/mL goes unstated.

Some solved entries appear below for comparison.
smiles.input | EC50, µg/mL
C=C(CC[C@@H](C)[C@H]1CC[C@H]2[C@@H]3C(=O)C=C4C[C@@H](O)CC[C@]4(CO)[C@H]3CC[C@]12C)C(C)C | 4.09
C=C(CC[C@@H](C)[C@H]1CC[C@H]2[C@@H]3C[C@@H](O)[C@@]4(O)C[C@@H](O)CC[C@]4(CO)[C@H]3CC[C@]12C)C(C)C | 0.81

Switching to the query record.
A549 assay, compound `C=C(CC[C@@H](C)[C@H]1CC[C@H]2[C@@H]3CC=C4C[C@@H](O)CC[C@]4(CO)[C@H]3CC[C@]12C)C(C)C` , recorded EC50 = 1.76
